molecular target: human PI3Kα protein (Homo sapiens, UniProt P42336); construct: purchased Carna Biosciences, Inc; host or cells: Baculovirus expression system; test: PI3Kα enzyme assay (ADP-Glo kinase assay); type: biochemical; details: IC50 class; 3 nM PI3Kα, 50 μM PIP2, 100 μM ATP; read-out: PI3Kα Inhibitory Activity
Sequence (P42336 whole entry): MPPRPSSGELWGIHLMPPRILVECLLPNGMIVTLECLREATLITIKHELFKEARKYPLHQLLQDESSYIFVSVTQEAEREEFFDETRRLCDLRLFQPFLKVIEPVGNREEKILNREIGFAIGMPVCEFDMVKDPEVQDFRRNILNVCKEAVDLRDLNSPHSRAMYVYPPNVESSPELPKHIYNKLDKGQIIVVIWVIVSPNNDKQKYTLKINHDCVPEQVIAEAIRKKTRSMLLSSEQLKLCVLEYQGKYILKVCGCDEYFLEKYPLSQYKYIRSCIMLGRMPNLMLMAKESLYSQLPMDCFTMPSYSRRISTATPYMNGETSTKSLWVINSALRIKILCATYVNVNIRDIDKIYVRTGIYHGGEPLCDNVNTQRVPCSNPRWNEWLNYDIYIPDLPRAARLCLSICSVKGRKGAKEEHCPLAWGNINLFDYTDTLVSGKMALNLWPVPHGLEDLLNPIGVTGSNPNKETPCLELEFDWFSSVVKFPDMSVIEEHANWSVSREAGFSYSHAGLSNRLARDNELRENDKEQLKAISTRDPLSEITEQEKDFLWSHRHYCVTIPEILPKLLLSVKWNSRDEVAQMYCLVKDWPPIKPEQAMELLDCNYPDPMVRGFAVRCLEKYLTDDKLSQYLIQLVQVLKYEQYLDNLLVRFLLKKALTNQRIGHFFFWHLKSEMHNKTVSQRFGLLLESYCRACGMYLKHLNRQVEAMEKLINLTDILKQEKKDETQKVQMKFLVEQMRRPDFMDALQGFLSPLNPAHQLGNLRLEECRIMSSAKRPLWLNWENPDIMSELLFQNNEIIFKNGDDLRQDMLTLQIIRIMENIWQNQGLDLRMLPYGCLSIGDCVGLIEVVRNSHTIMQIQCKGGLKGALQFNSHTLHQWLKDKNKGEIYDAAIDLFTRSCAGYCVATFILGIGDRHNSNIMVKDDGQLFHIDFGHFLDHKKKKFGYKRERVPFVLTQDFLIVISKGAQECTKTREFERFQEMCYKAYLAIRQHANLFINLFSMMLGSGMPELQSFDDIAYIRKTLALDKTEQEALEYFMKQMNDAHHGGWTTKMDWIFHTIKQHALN
Sequence (P27986 whole entry partner): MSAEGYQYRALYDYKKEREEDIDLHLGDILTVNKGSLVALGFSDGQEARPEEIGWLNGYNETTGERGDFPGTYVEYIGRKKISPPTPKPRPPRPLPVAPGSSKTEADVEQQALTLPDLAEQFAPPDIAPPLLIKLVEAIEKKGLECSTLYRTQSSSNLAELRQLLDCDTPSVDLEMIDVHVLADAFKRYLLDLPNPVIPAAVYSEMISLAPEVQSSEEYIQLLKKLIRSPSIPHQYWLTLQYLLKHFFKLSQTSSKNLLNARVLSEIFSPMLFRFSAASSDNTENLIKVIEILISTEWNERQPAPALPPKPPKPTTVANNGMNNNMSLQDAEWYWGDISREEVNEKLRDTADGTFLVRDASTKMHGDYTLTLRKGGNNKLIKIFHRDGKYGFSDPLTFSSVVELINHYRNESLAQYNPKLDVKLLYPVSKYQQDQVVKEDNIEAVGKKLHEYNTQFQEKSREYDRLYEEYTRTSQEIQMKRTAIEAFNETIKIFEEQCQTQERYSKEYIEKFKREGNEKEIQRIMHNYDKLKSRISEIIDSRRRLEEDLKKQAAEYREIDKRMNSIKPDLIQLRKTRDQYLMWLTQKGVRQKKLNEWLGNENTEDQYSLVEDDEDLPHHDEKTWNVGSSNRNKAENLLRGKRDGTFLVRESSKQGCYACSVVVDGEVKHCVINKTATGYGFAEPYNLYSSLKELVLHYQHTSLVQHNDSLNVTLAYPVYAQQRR
pIC50: −log10 of the molar value.
Each item that follows carries a reported pIC50.

# count of solved cases: 2
CN(C)CCOc1cc(-c2cnc3ccc(NC(=O)NC4CCCC4)nc3c2)ccc1O	> 7.00
O=C(Nc1ccc2ncc(-c3cnn(CCN4CCOCC4)c3)cc2n1)NC1CCCC1	> 7.00

Param request: pIC50 | system human PI3Kα protein (Homo sapiens, UniProt P42336) | item `CCN1CCC(n2cc(-c3cnc4ccc(NC(=O)NC5CCCC5)nc4c3)cn2)CC1`
> 7.00

Param request: pIC50 | system human PI3Kα protein (Homo sapiens, UniProt P42336) | item `O=C(NCCCCc1ccccc1)Nc1ccc2ncc(-c3cnn(CCCN4CCOCC4)c3)cc2n1`
> 7.00

Param request: pIC50 | system human PI3Kα protein (Homo sapiens, UniProt P42336) | item `CN(C)CCCNC(=O)Nc1ccc2ncc(-c3cn[nH]c3)cc2n1`
5.00 to 6.00

Param request: pIC50 | system human PI3Kα protein (Homo sapiens, UniProt P42336) | item `O=C(Nc1ccc2ncc(-c3nn[nH]n3)cc2n1)NC1CCCC1`
> 7.00

Param request: pIC50 | system human PI3Kα protein (Homo sapiens, UniProt P42336) | item `Cn1cc(-c2cc3nc(NC(=O)NC4CCCC4)ccc3nc2Cl)cn1`
< 5.00

Param request: pIC50 | system human PI3Kα protein (Homo sapiens, UniProt P42336) | item `O=C(NCCCCc1ccc(Cl)cc1)Nc1ccc2ncc(-c3cn[nH]c3)cc2n1`
6.00 to 7.00

Param request: pIC50 | system human PI3Kα protein (Homo sapiens, UniProt P42336) | item `C[C@H](C[C@H](C)Oc1ccccc1)NC(=O)Nc1ccc2ncc(-c3cn[nH]c3)cc2n1`
6.00 to 7.00

Param request: pIC50 | system human PI3Kα protein (Homo sapiens, UniProt P42336) | item `Cn1cc(-c2cnc3ccc(NC(=S)NC(=O)c4ccccc4)nc3c2)cn1`
6.00 to 7.00

Param request: pIC50 | system human PI3Kα protein (Homo sapiens, UniProt P42336) | item `O=C(Nc1ccc2ncc(N3CCN(c4cccnc4)CC3)cc2n1)NC1CCCC1`
> 7.00

Param request: pIC50 | system human PI3Kα protein (Homo sapiens, UniProt P42336) | item `CCCC(C)(C)NC(=O)Nc1ccc2ncc(-c3cnn(CCCN4CCOCC4)c3)cc2n1`
> 7.00

Param request: pIC50 | system human PI3Kα protein (Homo sapiens, UniProt P42336) | item `CN(C)CCNc1cnc2ccc(NC(=O)NC3CCCC3)nc2c1`
6.00 to 7.00

Param request: pIC50 | system human PI3Kα protein (Homo sapiens, UniProt P42336) | item `O=C(NCCCCc1ccccc1)Nc1ccc2ncc(-c3cn[nH]c3)cc2n1`
> 7.00

Param request: pIC50 | system human PI3Kα protein (Homo sapiens, UniProt P42336) | item `CN(C)CCn1cc(-c2cnc3ccc(NC(=S)NC4CCCC4)nc3c2)cn1`
> 7.00

Param request: pIC50 | system human PI3Kα protein (Homo sapiens, UniProt P42336) | item `C[C@@H](NC(=O)Nc1ccc2ncc(-c3cn[nH]c3)cc2n1)C1CCCCC1`
> 7.00

Param request: pIC50 | system human PI3Kα protein (Homo sapiens, UniProt P42336) | item `O=C(Nc1ccc2ncc(-c3cnn(CCCCN4CCOCC4)c3)cc2n1)NC1CCCC1`
> 7.00
